Source: PubChem BioAssay

- TEST_DESCRIPTION: P. aeruginosa biofilm formation inhibitors, primary screen, strain PAO1, LB-PBS medium, absorbance 600 nm (AID 1176); note: test concentration not given here
- EXPERIMENTAL_CONDITIONS: P. aeruginosa PAO1 growth/biofilm, A600, 12 h; higher = more signal
Item-by-item account of z-score
Answer with the value's number alone.

Fill in the blank: the reported z-score of `C=CCOC(=O)[C@H]1[C@@H]2C(=O)O[C@@H](c3ccccc3)[C@@H](c3ccccc3)N2[C@@H](c2ccc(OCCOC(=O)[C@H]3C[C@H]4C(=O)NCC(=O)N4[C@H]3c3cccc(OCCO)c3)cc2)[C@]12C(=O)Nc1ccc(I)cc12` is ____.
1.88

Lookup C=CCC(OC(C)=O)[C@@H]1[C@@H](N(Cc2ccc(-c3ccccc3)cc2)C(=O)Cc2ccc(OC)cc2)c2cc(OCCCO)ccc2N1C(=O)c1ccc2ccccc2c1 (some centres not stated)
0.0914

Lookup `O=C1N(Cc2ccccc2)Cc2ccccc2C[C@@]12COC(c1ccc(OCCCO)cc1)=N2`
-0.289

Lookup `COCCCNC(=O)[C@@]1(c2ccc([N+](=O)[O-])cc2)CC(=O)N(C2CCCCC2)[C@@H]1c1ccc(CO)cc1I`
0.966

Lookup COc1cc2c(cc1O)C(C)N(Cc1sc3ccccc3c1Cl)CC2 (configuration not stated)
0.668

Lookup `C=C(C(=O)CC[C@@H](OC(=O)c1ccccc1-c1ccccc1C(=O)O)c1cccc(OCCO)c1)C(C)C`
0.661

Lookup `C=CCNC(=O)[C@@H]1[C@H]2C(=O)O[C@H](c3ccccc3)[C@H](c3ccccc3)N2[C@H](c2ccc(OCCO)cc2)[C@@]12C(=O)N(C(=O)OCCOC)c1ccccc12`
2.69

----------
- TEST_TARGET: Dihydroorotate dehydrogenase (quinone), mitochondrial (Plasmodium falciparum (isolate 3D7)) (UniProt Q08210)
- Sequence (Q08210 whole entry, looked up): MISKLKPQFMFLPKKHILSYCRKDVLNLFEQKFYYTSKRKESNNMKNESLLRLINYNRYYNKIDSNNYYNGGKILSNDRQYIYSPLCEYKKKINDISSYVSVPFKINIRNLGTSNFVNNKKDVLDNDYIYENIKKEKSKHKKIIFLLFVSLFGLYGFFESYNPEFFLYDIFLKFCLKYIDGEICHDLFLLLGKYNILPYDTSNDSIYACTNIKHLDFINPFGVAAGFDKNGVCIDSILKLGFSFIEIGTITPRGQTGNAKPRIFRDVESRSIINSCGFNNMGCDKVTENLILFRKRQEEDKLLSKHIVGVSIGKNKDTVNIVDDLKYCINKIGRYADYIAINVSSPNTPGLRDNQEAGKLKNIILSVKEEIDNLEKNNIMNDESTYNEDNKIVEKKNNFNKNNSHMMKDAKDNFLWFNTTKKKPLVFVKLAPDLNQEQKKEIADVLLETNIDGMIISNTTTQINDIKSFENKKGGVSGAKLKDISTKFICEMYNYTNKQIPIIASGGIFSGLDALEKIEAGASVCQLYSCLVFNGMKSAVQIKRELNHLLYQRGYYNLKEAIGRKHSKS
- TEST_DESCRIPTION: PfDHODH enzyme inhibitors, primary screen, biochemical, C-terminal His tag, absorbance 600 nm (AID 1175);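 note: recombinant parasite enzyme with a five histidine tag at its C terminus; test concentration not given here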
- EXPERIMENTAL_CONDITIONS: DCIP absorbance 600 nm, higher = more signal, called active from +8 up or from −8 down
Class 1.0: composite z-score at least -0.4. Class 0.0: composite z-score below -0.4.

* CS(=O)(=O)CCOC(=O)C1=CC(CCCO)=CC(C2CC2)N(Cc2sc3ccccc3c2Cl)C=C1C(=O)OCCS(C)(=O)=O (configuration not stated) | 0.0
* CO[C@H]1O[C@H](CO)[C@@H](OC(=O)Nc2cccc(F)c2)[C@H](OC(=O)c2cc3ccccc3[nH]2)[C@H]1OC(=O)c1cc2ccccc2[nH]1 | 0.0
* CN1C(=O)C2C=CC(C(O)c3cccs3)N(N(c3ccccc3)c3ccccc3)C2C1=O (configuration not stated) | 1.0
* CC(C)c1ccc(NN2C(C(O)c3ccccc3)C=CC3C(=O)N(c4ccccc4)C(=O)C32)cc1 (configuration not stated) | 1.0
* COCCOC(=O)N1C(=O)[C@@]2(c3cc(C#CC4(O)CCCCCC4)ccc31)[C@H](C(N)=O)[C@H]1C(=O)O[C@H](c3ccccc3)[C@H](c3ccccc3)N1[C@@H]2c1ccc(OCCO)cc1 | 1.0

Assess whether reported composite z-score for CN1C(=O)C2C=CC(C(O)c3ccc([N+](=O)[O-])cc3)N(Nc3ccccc3)C2C1=O (configuration not stated) sits at -0.4 or higher.
1.0
